These entries and their values trace back to patent EP4786492A1.

Readings of MFI for the listed binders
Measured on: DLL3 endogenously expressed on NCI-H82 cells (UniProt Q9NYJ7)
Sequence (Q9NYJ7 27-618): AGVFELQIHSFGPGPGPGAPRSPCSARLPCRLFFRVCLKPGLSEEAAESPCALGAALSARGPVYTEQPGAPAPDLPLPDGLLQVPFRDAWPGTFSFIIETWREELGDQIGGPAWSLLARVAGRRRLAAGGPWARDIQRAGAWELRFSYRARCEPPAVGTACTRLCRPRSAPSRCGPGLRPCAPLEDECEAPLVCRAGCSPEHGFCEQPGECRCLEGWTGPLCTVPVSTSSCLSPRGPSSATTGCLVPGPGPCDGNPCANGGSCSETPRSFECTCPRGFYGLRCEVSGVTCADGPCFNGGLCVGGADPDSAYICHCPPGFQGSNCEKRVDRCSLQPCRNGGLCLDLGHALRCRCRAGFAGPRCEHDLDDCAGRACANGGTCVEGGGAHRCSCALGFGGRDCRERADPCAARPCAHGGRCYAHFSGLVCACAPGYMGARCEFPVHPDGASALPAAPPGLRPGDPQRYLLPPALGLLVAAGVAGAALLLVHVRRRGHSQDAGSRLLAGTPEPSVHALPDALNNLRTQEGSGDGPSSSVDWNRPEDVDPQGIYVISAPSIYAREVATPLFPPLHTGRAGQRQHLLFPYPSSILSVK
Method description: FACS on NCI-H82 cells; antibody 0.032 nM
The response must contain the number and no unit.

Binder	Result value
Hab008L1H5-hFc (scFv, part only; not given: VL-VH linker and human IgG1 Fc, V domains shown, not shown: another chain or arm of the molecule; a dimerising Fc or GST; small tags and cut ends) VL: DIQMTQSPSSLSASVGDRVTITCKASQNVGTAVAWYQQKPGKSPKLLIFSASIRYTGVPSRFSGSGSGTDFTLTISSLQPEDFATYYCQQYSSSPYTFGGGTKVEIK VH: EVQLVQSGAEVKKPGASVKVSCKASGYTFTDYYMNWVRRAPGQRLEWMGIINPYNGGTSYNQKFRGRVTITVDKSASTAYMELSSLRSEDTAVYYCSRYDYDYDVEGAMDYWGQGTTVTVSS	114
mab008 scFv-hFc (Fc fusion, part only; not given: linker and human IgG1 Fc, not shown: a dimerising Fc or GST) chain, part: DIVMTQSQKFMSTSVGDRVSITCKASQNVGTAVAWYQQKPGQSPKLLIFSASIRYTGVPDRFTGSGSGTDFTLTISNMQSEDLADYFCQQYSSSPYTFGGGTKLEIKEVQLQQSGPVLVKPGASVKMSCKASGYTFTDYYMNWVKRSHGKSLEWIGIINPYNGGTSYNQKFRGKATLTVDKSSNTAYMELNSLTSEDSAVYYCSRYDYDYDVEGAMDYWGQGTSVTVSS	95
BI3 (antibody, human IgG1, kappa, V domains shown) VH: QVQLVQSGAEVKKPGASVKVSCKASGYTFTSYYVHWVRQAPGQGLEWMVIINPGGGTTSYAQKFLGRVTMTRDTSTNTVYMELKSLRSEDTAVYYCARGEAVTGNYFYYGMDVWGQGTTVTVSS VL: DIQMTQSPSAMSASVGDRVTITCRASQGISNYLVWFQQKPGKAPKRLIYAVSSLYSGVPSRFSGSGSGTEFTLTISSLQPEDFATYYCLQHDSYPYTFGQGTKLEIKR	155

Next:
Returns the measured MFI for the input binder. Input: Hab015VL5VH1a-hFc (scFv, part only; not given: scFv linker and human IgG1 Fc, V domains shown, not shown: another chain or arm of the molecule; a dimerising Fc or GST; small tags and cut ends) VL: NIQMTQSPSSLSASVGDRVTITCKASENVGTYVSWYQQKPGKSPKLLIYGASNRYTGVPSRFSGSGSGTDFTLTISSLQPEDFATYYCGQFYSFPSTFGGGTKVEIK VH: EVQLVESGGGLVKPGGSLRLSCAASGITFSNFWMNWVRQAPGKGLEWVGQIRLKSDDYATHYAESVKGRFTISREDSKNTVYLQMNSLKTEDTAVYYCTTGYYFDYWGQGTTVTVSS
219
